assay: Pharmacokinetics of S9229 in rats, single iv or oral dose; format: in vivo, Sprague-Dawley rats; conditions: male, Sprague-Dawley, rat, plasma, po, 10 mg/kg
recorded_metric: half-life (h)
Give bare numbers, in h.

For record COC[C@@H](CC(C)C)NC(=O)c1ccc(C)c(C)c1 the listed half-life is 1.38

----------
assay: Toxicokinetics of S9229 in the 28-day rat study; assay type: in vivo, Sprague-Dawley rats; details: male, Sprague-Dawley (Crl:CD(SD)), rat, plasma, po, 10 mg/kg, AUC0-24hr, Day 28, 10 mg/kg bw, M
recorded_metric: AUC(0-t) (ng·h/mL)
One number for each entry, in ng·h/mL.

AUC(0-t) in this record for COC[C@@H](CC(C)C)NC(=O)c1ccc(C)c(C)c1 : 1.5
